Read-out: Collagen III, COL3A1 (gene 1281)
Method Summary: BSK_hDFCGF_CollagenIII: BioMAP Diversity Plus: hDFCGF Assay for Collagen III Biomarker Activity (AID 2283056)
Experimental Conditions: primary human foreskin fibroblasts; actives raise or lower the signal
Description: BSK_hDFCGF is a cell-based, multiplexed-readout assay that uses foreskin fibroblast, a human skin primary cell, with measurements taken at 24 hours after chemical dosing in a 96-well plate.BSK_hDFCGF_CollagenIII is an assay component measured in the BSK_hDFCGF assay. It measures Collagen antibody related to regulation of gene expression using ELISA technology.Data from the assay component BSK_hDFCGF_CollagenIII was analyzed into 1 assay endpoint. […]
Calls of active or inactive are those of the source. The calls were made as follows: active = hit-call score of the fitted dose curve at least 0.9, where 1 is the maximum; inactive = score below 0.9.
Answer with one of the outcomes T = active, F = inactive

Some solved cases for reference:
CN(C)CCC(c1ccc(Cl)cc1)c1ccccn1 (centres undefined) ... F
COC(=O)/C=C\C(=O)OC ... F
CCCCCCCCCC/C=C/C1CC(=O)OC1=O (centres undefined) ... F
CC[N+](CC)(CC(=O)Nc1c(C)cccc1C)Cc1ccccc1 (tested in a mixture with another compound) ... F
CN(C)c1ccc(C(c2ccccc2)c2ccc(N(C)C)cc2)cc1 ... T
CCCCCCCCCCC1CO1 (centres undefined) ... T

Req: Which outcome did this test record for the molecule CCCCCCC(O)CCCCCCCCCCC(=O)OC (centres undefined) ?
Resp: F

Req: Field: outcome | Entry: Cc1cccnc1
Resp: F

Req: Field: outcome | Entry: O=C(C(=O)c1ccccc1)c1ccccc1
Resp: F

* * *

Study Target: Cellular tumor antigen p53 (Homo sapiens)
Method Summary: TOX21_p53_BLA_p5_ratio: Tox21 HCT-116 p53 Agonism Beta-lactamase Assay, Ratio, Phase 5 (AID 2283599)
Results filed as inconclusive are left out. The source made the active and inactive calls. The calls were made as follows: active = hit-call score of the fitted dose curve at least 0.9, where 1 is the maximum; inconclusive = response in the unintended direction; inactive = score below 0.9.
In this exercise, the only acceptable responses are active, inactive

Answered cases to consult:
Cc1cn[nH]c1 ... inactive
CC1(C)S[C@@H]2[C@H](NC(=O)Cc3ccccc3)C(=O)N2[C@H]1C(=O)O (tested in a mixture with another compound) ... inactive
CN=C(NC#N)NCCSCc1csc(N=C(N)N)n1 ... inactive
CN1C(C)(C)CCCC1(C)C ... inactive
Cc1cccc([N+](=O)[O-])c1C(=O)O ... inactive

Req: What was the test verdict on Nc1nc(Cl)nc2c1ncn2[C@@H]1O[C@H](CO)[C@@H](O)[C@@H]1F ?
Resp: active

Req: Per the assay record, what outcome was assigned to CCCCCCCCNC(C)C(O)c1ccc(SC(C)C)cc1 (configuration not stated) ?
Resp: active

Req: Dear colleague, could you share the recorded outcome for COc1cc(CNC(=O)CCCC/C=C/C(C)C)ccc1O when you have a moment?
Resp: inactive

* * *

Study Target: Cellular tumor antigen p53 (Homo sapiens) (UniProt P04637)
Sequence (P04637 whole entry, looked up): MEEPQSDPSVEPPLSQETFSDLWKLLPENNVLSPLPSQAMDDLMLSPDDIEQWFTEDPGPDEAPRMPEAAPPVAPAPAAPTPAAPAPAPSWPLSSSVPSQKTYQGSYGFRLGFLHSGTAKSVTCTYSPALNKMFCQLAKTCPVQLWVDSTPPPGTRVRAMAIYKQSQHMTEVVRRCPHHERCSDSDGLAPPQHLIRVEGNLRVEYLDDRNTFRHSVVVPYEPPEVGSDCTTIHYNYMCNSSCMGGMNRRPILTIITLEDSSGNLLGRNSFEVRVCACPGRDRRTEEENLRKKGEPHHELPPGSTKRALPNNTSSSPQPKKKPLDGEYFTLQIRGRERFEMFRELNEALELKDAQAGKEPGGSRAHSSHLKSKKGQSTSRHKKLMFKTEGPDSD
Method Summary: TOX21_p53_BLA_p4_ratio: Tox21 HCT-116 p53 Agonism Beta-lactamase Assay, Ratio, Phase 4 (AID 2283601)
Results filed as inconclusive are left out. The source made the active and inactive calls. How the source made its calls: active means hit-call score of the fitted dose curve at least 0.9, where 1 is the maximum; inconclusive means response in the unintended direction; inactive means score below 0.9.
Respond using exactly one of the listed classes: active, inactive

Worked examples, 5 molecules total:
C[C@H](CCC(=O)O)[C@H]1CC[C@H]2[C@@H]3[C@H](O)C[C@@H]4C[C@H](O)CC[C@]4(C)[C@H]3CC[C@]12C ... inactive
Cc1ccccc1C(=O)N1CC/C(=N\OS(=O)(=O)O)c2ccc(Cl)cc21 ... inactive
CCC1C(=O)OCC1Cc1cncn1C (stereo unspecified) ... inactive
CCOC(=O)C(C)O (stereo unspecified) ... inactive
N#C/C(=C1/SC[C@@H](c2ccc(Cl)cc2Cl)S1)n1ccnc1 ... inactive

Req: Each molecule tested received a call. Report the one for CCCCCCCCCCCCCC[N+](C)(C)Cc1ccccc1 .
Resp: active

Req: For CC1(C)[C@@H]2CC[C@]3(C2)[C@@H]1C(=O)CCC3(C)C , what call appears in the results of this test?
Resp: inactive

* * *

Study Target: Cellular tumor antigen p53 (Homo sapiens)
Method Summary: TOX21_p53_BLA_p5_ratio: Tox21 HCT-116 p53 Agonism Beta-lactamase Assay, Ratio, Phase 5 (AID 2283599)
Inconclusive results are not listed. Calls of active or inactive are those of the source. The calls were made as follows: active = hit-call score of the fitted dose curve at least 0.9, where 1 is the maximum; inconclusive = response in the unintended direction; inactive = score below 0.9.
Answer with one of the outcomes 1 (active), 0 (inactive)

Reference set, count: 8
CC(C)(C)CC(C)(C)c1ccccc1O ... 1
COCCCN ... 0
Oc1cccc(O)c1O ... 0
O=c1[nH]c(=O)n([C@H]2C[C@H](O)[C@@H](CO)O2)cc1F ... 1
CC(=O)CCc1ccc(OC(C)=O)cc1 ... 0
COCC(C)OC(C)=O (configuration not stated) ... 0
COc1ccc(Cl)cc1C(=O)NCCc1ccc(S(=O)(=O)NC(=O)NC2CCCCC2)cc1 ... 0
C=CC1=C(C)C2=CC3=NC(=C(CC(=O)[O-])C4=NC(=C(C)C4=C([O-])[O-])C=c4[n-]c(c(C)c4CC)=CC1=N2)[C@@H](CCC(=O)[O-])[C@@H]3C.[Cu+2].[Na+].[Na+].[Na+] ... 0

Req: Test call, this molecule: CC(=O)CCCCn1c(=O)c2c(ncn2C)n(C)c1=O
Resp: 0

* * *

Method Summary: TOX21_p53_BLA_p2_viability: Viability Assessment in the Tox21 HCT-116 p53 Agonism Beta-lactamase Assay, Phase 2 (AID 2283591);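 also: compound exposure lasted 16 h at 37 °C; actives lower the ATP signal meaning cytotoxicity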
Records with an inconclusive call do not appear. The source made the active and inactive calls. The calls were made as follows: active = hit-call score of the fitted dose curve at least 0.9, where 1 is the maximum; inconclusive = response in the unintended direction; inactive = score below 0.9.
Measured Endpoint: outcome

# count of solved cases: 5
CCOC(=O)Cc1cccc(-c2cc(CCCCCCc3ccc(O[C@H]4O[C@H](COC(C)=O)[C@@H](OC(C)=O)[C@H](OC(C)=O)[C@@H]4OC(C)=O)c(-c4cccc(CC(=O)OCC)c4)c3)ccc2O[C@H]2O[C@H](COC(C)=O)[C@@H](OC(C)=O)[C@H](OC(C)=O)[C@@H]2OC(C)=O)c1 ... inactive
CCCCCCCCSCC ... inactive
C[C@H]1C[C@H]2[C@@H]3CCC4=CC(=O)C=C[C@]4(C)[C@@]3(F)[C@@H](O)C[C@]2(C)[C@@]1(O)C(=O)CCl ... inactive
CCCCCCCCC(CCCCCC)C(=O)O (centres undefined) ... inactive
CC1=C(C)C(=O)C(C(CCCCCC(=O)O)c2ccccc2)=C(C)C1=O (centres undefined) ... inactive

Kindly give each listed record's outcome.
1. COc1c(Br)cc(Br)c(C)c1Br
2. O=C(Nc1ccc(O)cc1)c1ccccc1O
3. Oc1ccc(-c2ccc(O)cc2)cc1
4. CC(CCc1ccccc1)NCC(O)c1ccc(O)c(C(N)=O)c1 (centres undefined)

Resp:
["inactive", "inactive", "inactive", "inactive"]

* * *

Method Summary: TOX21_p53_BLA_p2_viability: Viability Assessment in the Tox21 HCT-116 p53 Agonism Beta-lactamase Assay, Phase 2 (AID 2283591);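 also: compound exposure lasted 16 h at 37 °C; actives lower the ATP signal meaning cytotoxicity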
Source text: TOX21_p53_BLA_p2 is a cell-based, single-readout assay that uses HCT116, a human intestinal cell line, […] in a 1536-well plate.TOX21_p53_BLA_p2_viability is an assay readout measuring cellular ATP content and detected with CellTiter-Glo Luciferase-coupled ATP quantitation.TOX21_p53_BLA_p2_viability used a type of viability reporter where loss-of-signal activity can be used to understand changes in the cell viability. […]
Results filed as inconclusive are left out. Active and inactive are the calls of the source. The calls were made as follows: active = hit-call score of the fitted dose curve at least 0.9, where 1 is the maximum; inconclusive = response in the unintended direction; inactive = score below 0.9.
# valid calls are true (1) for active, false (0) for inactive; nothing else

Please review the entries below; each comes with its answer.
CC(C(=O)O)c1ccc(/C=C2\CCCCC2=O)cc1 (stereo not drawn) ... false (0)
[O]=[Mo](=[O])=[O] ... false (0)
CCCCC(=O)O[C@H]1CC[C@H]2[C@@H]3CCc4cc(O)ccc4[C@H]3CC[C@]12C ... false (0)
O=C[C@H](O)[C@@H](O)[C@@H](O)[C@H](O)CO ... false (0)
c1ccc(CNCCNCc2ccccc2)cc1 ... false (0)
CC1=CC(=O)CC(C)(C)C1=O ... false (0)

Req: Dear all, I need the recorded test outcome for Cc1c(C(N)=O)cc([N+](=O)[O-])cc1[N+](=O)[O-] , thank you.
Resp: false (0)

Req: Hi team, can someone confirm the assay call for COc1cc2c(cc1OC)-c1cc(=Nc3c(C)cc(C)cc3C)n(C)c(=O)n1CC2 ?
Resp: true (1)

Req: Record lookup: outcome of this test for O=C(Nc1ccc(C(=O)O)c(O)c1)c1ccccc1 ?
Resp: false (0)

Req: Each compound tested received a call. Report the one for O=C1Cc2cc(CCN3CCN(c4nsc5ccccc45)CC3)c(Cl)cc2N1 .
Resp: false (0)

Req: Fill in: this test's call for S=C1NC=NC2N=CNC12 (stereo not drawn) is ___
Resp: true (1)

Req: Could you check what this test reported for C[N+]1(CC2COC(c3ccccc3)(c3ccccc3)O2)CCCCC1 (stereo not drawn) ?
Resp: false (0)

Req: Called result for COc1cc(C(=O)OCCCN2CCCN(CCCOC(=O)c3cc(OC)c(OC)c(OC)c3)CC2)cc(OC)c1OC
Resp: false (0)

Req: Each compound tested received a call. Report the one for Oc1cccc2ccccc12 .
Resp: false (0)

Req: Which outcome did this test record for the compound Nc1ccc(C(=O)Nc2ccccc2N)cc1 ?
Resp: false (0)

Req: Kindly provide the recorded test outcome for the following compound: Clc1ccccc1-c1nc(-c2ccncc2)no1
Resp: false (0)

Req: Which outcome did this test record for the compound CC(C)(CO)[C@@H](O)C(=O)NCCC(=O)NCCSSCCNC(=O)CCNC(=O)[C@H](O)C(C)(C)CO ?
Resp: false (0)

Req: Assay outcome for O=C1N(c2ccccc2)c2ccccc2C1(Cc1ccncc1)Cc1ccncc1 : what was it?
Resp: false (0)

Req: Each compound tested received a call. Report the one for O=C(O)c1c(Cl)c(Cl)c(Cl)c(Cl)c1-c1c2cc(I)c(=O)c(I)c-2oc2c(I)c(O)c(I)cc12 .
Resp: true (1)

Req: Give the logged outcome of this assay for the following compound: CCOC(=O)Oc1c(OC)cc(C(=O)O[C@@H]2C[C@@H]3CN4CCc5c([nH]c6cc(OC)ccc56)[C@H]4C[C@@H]3[C@H](C(=O)OC)[C@H]2OC)cc1OC
Resp: false (0)

Req: Which outcome was assigned to COCC(=O)Nc1c(I)c(C(=O)NCC(O)CO)c(I)c(C(=O)N(C)CC(O)CO)c1I (stereo not drawn) in this test?
Resp: false (0)

Req: Record request — test call for CC(=O)O[C@H]1C[C@@H]2CC[C@@H]3[C@H](CC[C@@]4(C)[C@H]3C[C@H]([N+]3(C)CCCCC3)[C@@H]4OC(C)=O)[C@@]2(C)C[C@@H]1[N+]1(C)CCCCC1
Resp: false (0)

Req: State the result this test recorded for NC(N)=NCc1cccc(I)c1 .
Resp: false (0)

Values from PubChem BioAssay (EPA / NIEHS)
